Each recorded value in this set is attributed to patent US20250109139A1.

Assay: Pharmacokinetics in SD rats, single dose intragastric and intravenous
Format: in vivo
Details: male, rat, plasma, intravenous injection, dose 10 mg/kg, read-out: Peak drug concentration Cmax
observationType: Cmax (ng/mL)
# unit: ng/mL | format: bare number

Input: Recall and state the measured Cmax for COc1cccc2c1cc1n2CCN(CC[C@H]2CC[C@H](NC(=O)N(C)C)CC2)C1 [I-C7] .
Output: 765

----------
Biological target: dopamine D2 receptors (Homo sapiens (Human), UniProt P14416)
Sequence (P14416 whole entry): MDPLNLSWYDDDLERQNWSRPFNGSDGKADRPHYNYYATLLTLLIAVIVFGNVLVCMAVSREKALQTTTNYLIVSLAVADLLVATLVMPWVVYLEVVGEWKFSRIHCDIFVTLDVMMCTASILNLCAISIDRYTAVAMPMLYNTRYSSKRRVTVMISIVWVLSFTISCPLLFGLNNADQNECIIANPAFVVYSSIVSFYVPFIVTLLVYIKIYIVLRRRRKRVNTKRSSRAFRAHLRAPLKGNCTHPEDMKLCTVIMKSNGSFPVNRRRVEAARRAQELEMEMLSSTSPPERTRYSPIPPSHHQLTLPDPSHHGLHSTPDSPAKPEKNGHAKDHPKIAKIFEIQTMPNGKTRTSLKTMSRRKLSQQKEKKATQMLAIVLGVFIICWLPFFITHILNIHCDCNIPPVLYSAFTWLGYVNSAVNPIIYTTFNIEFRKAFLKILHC
Assay: Dopamine D2 receptor radioligand competition binding assay ([3H]-Methylspiperone)
Conditions: [3H]-Methylspiperone 0.3 to 0.5 nM, 293T membranes; read-out: Affinity pKi ± SEM (converted)
Entries annotated with measured Ki
Answer with a number only, understood to be in nM.

Past entries and their recorded results:
COc1cccc2c3c([nH]c12)CN(CC[C@H]1CC[C@H](NC(=O)N(C)C)CC1)CC3 :: 1.82
COc1cccc2c1nc1n2CCN(CC[C@H]2CC[C@H](NC(=O)N(C)C)CC2)C1 :: 12.9
COc1cccc2c3c(oc12)CN(CC[C@H]1CC[C@H](NS(C)(=O)=O)CC1)CC3 :: 1580
CCOc1cccc2c3c(oc12)CN(CCC1CC(NC(=O)N(C)C)C1)CC3 (stereo not shown) :: 617
COc1cccc2c3c([nH]c12)CN(CCCCOc1ccc2ccc(=O)[nH]c2c1)CC3 :: 83.2
COc1cccc2c1cc1n2CCN(CCCCOc2ccc3ccc(=O)[nH]c3c2)C1 :: 269
COc1cccc2c1cc1n2CCN(CCCCOc2ccc3c(c2)NC(=O)CC3)C1 :: 61.7
COc1cccc2c3c(oc12)CN(CC[C@H]1CC[C@H](NC(=O)N(C)C)CC1)CC3 :: 372
COc1cccc2c3c([nH]c12)CN(CCCOc1ccc2ccc(=O)[nH]c2c1)CC3 :: 288

The record that follows has no Ki shown yet.
Input: Provide measured Ki on dopamine D2 receptors (Homo sapiens (Human), UniProt P14416) for CCOc1cccc2c3c([nH]c12)CN(CCCCOc1ccc2ccc(=O)[nH]c2c1)CC3 please.
Output: 77.6
